Data provenance is patent US4415567A.

- System: Escherichia coli NIHJ
- test_summary: MIC, standard agar dilution method, Escherichia coli NIHJ
- Assay type: cell-based
- experimental_parameters: Escherichia coli NIHJ; Mueller Hinton agar, 18 hours, 37° C.; read-out: MIC
Listing: MIC of selected molecules
Kindly format the answer as number then unit.

>>> result("CO[C@@]1(NC(=O)[C@H](NC(=O)c2coc3cc(O)c(O)cc3c2=O)c2ccccc2)C(=O)N2C(C(=O)O)=C(COC(C)=O)CS[C@@H]21")
"0.8 µg/mL"

Q: For the molecule shown here, CCn1nnnc1SCC1=C(C(=O)O)N2C(=O)[C@](NC(=O)[C@H](NC(=O)c3coc4cc(O)c(O)cc4c3=O)c3ccc(O)cc3)(OC)[C@H]2SC1 , give the reported MIC.
Result: 3.13 µg/mL

Q: Quick one: MIC of CO[C@@]1(NC(=O)[C@H](NC(=O)c2coc3c(C)c(OCc4ccccc4)ccc3c2=O)c2ccccc2)C(=O)N2C(C(=O)O)=C(COC(C)=O)CS[C@@H]21 ?
Result: 3.13 µg/mL
